biological target: Human JAK1 (Homo sapiens (Human))
Sequence (P23458 whole entry): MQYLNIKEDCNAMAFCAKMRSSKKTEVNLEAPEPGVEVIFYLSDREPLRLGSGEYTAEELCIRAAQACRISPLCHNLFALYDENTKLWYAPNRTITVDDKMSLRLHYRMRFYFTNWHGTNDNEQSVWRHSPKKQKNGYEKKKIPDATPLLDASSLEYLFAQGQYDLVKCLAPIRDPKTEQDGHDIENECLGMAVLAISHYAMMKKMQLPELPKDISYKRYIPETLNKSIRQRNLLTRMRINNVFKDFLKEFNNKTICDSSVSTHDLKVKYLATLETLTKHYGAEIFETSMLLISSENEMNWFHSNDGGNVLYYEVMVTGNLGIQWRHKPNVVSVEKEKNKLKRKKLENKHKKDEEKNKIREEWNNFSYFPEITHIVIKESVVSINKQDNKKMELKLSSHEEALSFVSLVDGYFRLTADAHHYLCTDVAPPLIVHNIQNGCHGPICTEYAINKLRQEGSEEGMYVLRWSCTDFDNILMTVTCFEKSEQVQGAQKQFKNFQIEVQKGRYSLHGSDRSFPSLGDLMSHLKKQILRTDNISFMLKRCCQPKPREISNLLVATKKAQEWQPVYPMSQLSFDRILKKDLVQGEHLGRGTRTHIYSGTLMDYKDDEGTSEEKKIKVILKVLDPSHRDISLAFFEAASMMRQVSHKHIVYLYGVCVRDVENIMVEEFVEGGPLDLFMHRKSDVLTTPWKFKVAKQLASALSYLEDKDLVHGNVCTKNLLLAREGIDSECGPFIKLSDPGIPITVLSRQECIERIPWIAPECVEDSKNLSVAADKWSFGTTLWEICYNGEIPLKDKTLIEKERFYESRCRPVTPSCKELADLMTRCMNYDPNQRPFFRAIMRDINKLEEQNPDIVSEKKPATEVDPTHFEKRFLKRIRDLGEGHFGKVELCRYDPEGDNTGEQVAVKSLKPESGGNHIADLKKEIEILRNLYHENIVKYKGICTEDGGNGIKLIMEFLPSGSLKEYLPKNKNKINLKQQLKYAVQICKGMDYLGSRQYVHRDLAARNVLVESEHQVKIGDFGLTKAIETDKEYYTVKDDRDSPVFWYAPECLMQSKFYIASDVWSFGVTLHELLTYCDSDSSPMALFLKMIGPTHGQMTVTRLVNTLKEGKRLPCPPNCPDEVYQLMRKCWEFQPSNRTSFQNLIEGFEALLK
Listed here are molecules together with their documented IC50.
Just the number please, in nM, no unit attached.

• CN(c1ncnc2[nH]ccc12)[C@@H]1CN(C(=O)CC#N)CC12CC2 [Example 66] = 787

In the following, a different molecule is considered.
Prompt: Fill blank: measured IC50 of the molecule CN(c1ncnc2[nH]ccc12)[C@H]1CN(C(=O)CC#N)CC12CC2 [Example 5] is ____.
Completion: 8.5

---

biological target: Human TYK2 (Homo sapiens (Human), UniProt P29597); test: In vitro kinase inhibition test, TYK2 (33P-ATP filter scintillation); format: biochemical; settings: compound at 1 uM; read-out: TYK2 kinase-phosphorylation inhibitory level (% inhibition)
Sequence (P29597 whole entry): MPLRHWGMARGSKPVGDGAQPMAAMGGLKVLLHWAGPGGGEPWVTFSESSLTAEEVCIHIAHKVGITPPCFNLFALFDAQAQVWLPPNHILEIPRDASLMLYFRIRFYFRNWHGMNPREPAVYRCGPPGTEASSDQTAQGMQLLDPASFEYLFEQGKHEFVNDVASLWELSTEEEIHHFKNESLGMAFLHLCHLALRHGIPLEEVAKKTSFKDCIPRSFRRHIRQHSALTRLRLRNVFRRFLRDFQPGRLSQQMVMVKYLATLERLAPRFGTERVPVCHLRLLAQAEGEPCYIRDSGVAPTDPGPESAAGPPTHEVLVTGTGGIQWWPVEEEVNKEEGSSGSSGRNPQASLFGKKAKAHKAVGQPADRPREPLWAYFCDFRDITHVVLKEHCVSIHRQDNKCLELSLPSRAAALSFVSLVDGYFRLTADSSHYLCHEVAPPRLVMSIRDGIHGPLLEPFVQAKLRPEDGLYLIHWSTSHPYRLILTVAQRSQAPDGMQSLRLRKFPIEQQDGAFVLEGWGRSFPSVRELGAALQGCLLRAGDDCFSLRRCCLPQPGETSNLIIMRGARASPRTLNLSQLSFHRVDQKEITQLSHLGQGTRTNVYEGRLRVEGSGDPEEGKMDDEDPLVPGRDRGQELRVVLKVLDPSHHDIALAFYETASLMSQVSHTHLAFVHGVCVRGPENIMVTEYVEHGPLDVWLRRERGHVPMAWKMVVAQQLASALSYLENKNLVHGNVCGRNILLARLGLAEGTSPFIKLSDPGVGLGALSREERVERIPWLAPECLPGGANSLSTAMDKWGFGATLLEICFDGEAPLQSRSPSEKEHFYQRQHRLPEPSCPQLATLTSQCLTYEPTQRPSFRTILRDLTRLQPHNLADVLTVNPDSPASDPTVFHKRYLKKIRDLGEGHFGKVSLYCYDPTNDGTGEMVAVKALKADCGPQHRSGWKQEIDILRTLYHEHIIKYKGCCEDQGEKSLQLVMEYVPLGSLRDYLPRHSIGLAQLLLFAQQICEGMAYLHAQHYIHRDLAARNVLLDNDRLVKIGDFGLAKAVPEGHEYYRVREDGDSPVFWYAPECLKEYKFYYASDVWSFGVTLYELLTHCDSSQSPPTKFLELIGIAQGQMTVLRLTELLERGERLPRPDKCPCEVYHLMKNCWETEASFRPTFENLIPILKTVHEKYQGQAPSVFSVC
Reported values of inhibition at 1 µM for individual entries

Prompt: Return reported inhibition at 1 µM; argument: CN(c1ncnc2[nH]ccc12)[C@@H]1CN(C(=O)CC#N)CC12CC2
Completion: -16%

Prompt: Okay, and CN(c1ncnc2[nH]ccc12)[C@H]1CN(S(=O)(=O)C(F)(F)F)CC12CC2 ?
Completion: 86%

Prompt: Now try CN(c1ncnc2[nH]ccc12)[C@H]1CN(C(=O)Nc2ccc(Cl)c(Cl)c2)CC12CC2 .
Completion: 42%

Prompt: One more compound: CN(c1ncnc2[nH]ccc12)[C@H]1CN(S(=O)(=O)c2ccccc2C#N)CC12CC2
Completion: 72%

Prompt: Same for CN(c1ncnc2[nH]ccc12)[C@H]1CN(C(=O)CC#N)CC12CC2
Completion: 82%

---

target: Human JAK1 (Homo sapiens (Human)); test: In vitro kinase inhibition test, JAK1 (33P-ATP filter scintillation); type: biochemical; details: compound at 1 uM; read-out: JAK1 kinase-phosphorylation inhibitory level (% inhibition)
This section presents compounds with their documented inhibition at 1 µM values.
Report the value in % with no unit label.

Known inhibition at 1 µM results, listed for orientation:
* CN(c1ncnc2[nH]ccc12)[C@H]1CN(C(=O)Nc2ccccc2)CC12CC2 | 98
* CCS(=O)(=O)N1C[C@@H](N(C)c2ncnc3[nH]ccc23)C2(CC2)C1 | 40
* CC(C)COC(=O)N1CC(N(C)c2ncnc3[nH]ccc23)C2(CC2)C1 (centres unmarked) | 85

Prompt: May I ask what inhibition at 1 µM has been recorded for CNC(=O)CC(=O)N1C[C@@H](N(C)c2ncnc3[nH]ccc23)C2(CC2)C1 ?
Completion: 5

Prompt: Please do the same for CC(C)C(=O)N1C[C@H](N(C)c2ncnc3[nH]ccc23)C2(CC2)C1 as well.
Completion: 83

Prompt: Repeat for the following compound: CN(c1ncnc2[nH]ccc12)[C@H]1CN(C(=O)Nc2ccc(Cl)c(Cl)c2)CC12CC2
Completion: 94

Prompt: // next record CC(C)COC(=O)N1C[C@H](N(C)c2ncnc3[nH]ccc23)C2(CC2)C1
Completion: 93

Prompt: What about this compound? Cc1ccc(NC(=O)N2C[C@H](N(C)c3ncnc4[nH]ccc34)C3(CC3)C2)cc1Cl
Completion: 92

---

Below are IC50 values recorded for UniProt O60674.
Sequence (O60674 whole entry): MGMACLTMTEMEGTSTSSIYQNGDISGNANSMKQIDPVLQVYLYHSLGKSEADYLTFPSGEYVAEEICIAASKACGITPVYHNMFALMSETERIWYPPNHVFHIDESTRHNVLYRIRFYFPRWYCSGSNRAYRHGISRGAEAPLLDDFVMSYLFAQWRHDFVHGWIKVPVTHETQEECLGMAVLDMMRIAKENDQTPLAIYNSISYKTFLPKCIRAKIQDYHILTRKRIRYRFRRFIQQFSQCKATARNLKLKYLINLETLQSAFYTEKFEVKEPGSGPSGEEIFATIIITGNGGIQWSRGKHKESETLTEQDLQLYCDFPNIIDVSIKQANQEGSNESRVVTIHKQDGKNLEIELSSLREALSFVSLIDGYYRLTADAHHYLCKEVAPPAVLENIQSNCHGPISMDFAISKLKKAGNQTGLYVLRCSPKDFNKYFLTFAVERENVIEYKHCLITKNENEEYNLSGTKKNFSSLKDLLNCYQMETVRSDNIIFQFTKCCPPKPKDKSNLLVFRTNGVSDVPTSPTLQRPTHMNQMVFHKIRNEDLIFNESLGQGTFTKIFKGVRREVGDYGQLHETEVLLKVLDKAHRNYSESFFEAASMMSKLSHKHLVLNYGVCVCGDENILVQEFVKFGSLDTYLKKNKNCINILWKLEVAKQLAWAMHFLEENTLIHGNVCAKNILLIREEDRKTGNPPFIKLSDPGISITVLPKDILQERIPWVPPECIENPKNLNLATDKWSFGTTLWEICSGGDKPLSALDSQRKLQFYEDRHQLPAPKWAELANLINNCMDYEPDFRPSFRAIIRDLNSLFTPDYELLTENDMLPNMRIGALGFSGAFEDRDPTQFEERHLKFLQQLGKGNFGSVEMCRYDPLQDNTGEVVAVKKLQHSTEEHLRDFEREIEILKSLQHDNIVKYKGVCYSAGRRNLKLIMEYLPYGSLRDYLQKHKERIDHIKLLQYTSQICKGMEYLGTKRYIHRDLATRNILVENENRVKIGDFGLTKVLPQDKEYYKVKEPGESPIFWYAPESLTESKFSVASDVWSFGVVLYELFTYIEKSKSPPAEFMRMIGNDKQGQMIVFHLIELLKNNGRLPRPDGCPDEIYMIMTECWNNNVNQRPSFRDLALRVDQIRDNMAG
Please state the figure in nM; there is no need to write the unit.

• CN(c1ncnc2[nH]ccc12)[C@H]1CN(C(=O)CC#N)CC12CC2 = 412

Now for the molecule whose IC50 we want.
Prompt: What value of IC50 has been reported for the following molecule? CN(c1ncnc2[nH]ccc12)C1CN(C(=O)CC#N)CC12CC2 (racemic)
Completion: 148

Just for reference, patent US10081635B2 is where these values come from.
